Tested on: PC26
Assay: qHTS profiling for inhibitors of Plasmodium falciparum proliferation (AID 504749); further: nearly all actives have a fitted effect of over 60% in size
Conditions: P. falciparum in erythrocytes, SYBR Green DNA, 72 h; series mostly up to 28.7 µM
Results filed as inconclusive are left out. Active and inactive are the calls of the source. The call rests on the fitted dose curve; in most records, active means well fitted inhibition curve with a large enough effect; inconclusive means small, poorly fitted or top-dose-only effect; inactive means flat fitted curve, though single readings scatter.
# valid calls are active, inactive; nothing else

Examples with answers:
O=C(O)Cc1ccc(-c2ccccc2)cc1 :: inactive
Nc1ccc(C(=O)O)c(O)c1 :: inactive
COc1cc(CNC(=O)CCCC/C=C/C(C)C)ccc1O :: inactive
CCCCCC[C@@H](O)C/C=C\CCCCCCCC(=O)O :: inactive
COc1cc(/C=C/C(=O)CC(=O)/C=C/c2ccc(O)c(OC)c2)ccc1O :: active
CCCCCCCCCCCCCCCCCC(=O)O :: inactive

Request: Hello, I am checking results. What call was entered for `N=c1ccn2c(n1)O[C@H]1[C@H](O)[C@@H](CO)O[C@H]12` ?
Response: inactive
